tested on: cryopreserved human hepatocytes in primary culture; assay: Unchanged drug disappearance / intrinsic metabolic clearance in primary cultures of cryopreserved human hepatocytes; format: in vitro ADME; details: mean of four hepatocyte preparations, 5 μmol/L
Mark YES for reported In vitro intrinsic hepatic clearance, Mean ± SD of 0.1 mL·h^−1·10^6 cells or greater; mark NO for anything smaller.

> print(dat)
                                smiles.repr  group
1  CCCCc1oc2ccc(NS(C)(=O)=O)cc2c1C(=O)c1ccc(O)cc1    YES
2  CCCCc1oc2ccc(NS(C)(=O)=O)cc2c1C(=O)c1ccc(OCCC(=O)O)cc1    YES
3           CCCCN(CCCC)CCCOc1ccc(C(=O)O)cc1     NO
4  CCCCc1oc2ccc(NS(C)(=O)=O)cc2c1C(=O)c1ccc(OCCCN(CCCC)CCCC)cc1.Cl    YES
5  CCCCNCCCOc1ccc(C(=O)c2c(CCCC)oc3ccc(NS(C)(=O)=O)cc23)cc1    YES

---

system: cryopreserved human hepatocytes in primary culture; assay: Unchanged drug disappearance / intrinsic metabolic clearance in primary cultures of cryopreserved human hepatocytes; type: in vitro ADME; details: hepatocyte preparation BD-91, 5 μmol/L
MEASURED_ENDPOINT: In vitro intrinsic hepatic clearance (mL·h^−1·10^6 cells)

> print(dat)
                                smiles.repr  experimental.value
1  CCCCc1oc2ccc(NS(C)(=O)=O)cc2c1C(=O)c1ccc(OCCC(=O)O)cc1                0.06
2  CCCCNCCCOc1ccc(C(=O)c2c(CCCC)oc3ccc(NS(C)(=O)=O)cc23)cc1                0.18
3           CCCCN(CCCC)CCCOc1ccc(C(=O)O)cc1               0.003
4  CCCCc1oc2ccc(NS(C)(=O)=O)cc2c1C(=O)c1ccc(OCCCN(CCCC)CCCC)cc1.Cl                0.49
5  CCCCc1oc2ccc(NS(C)(=O)=O)cc2c1C(=O)c1ccc(O)cc1                0.44

---

System: cryopreserved human hepatocytes in primary culture
Test: Unchanged drug disappearance / intrinsic metabolic clearance in primary cultures of cryopreserved human hepatocytes
Format: in vitro ADME
Details: hepatocyte preparation IVT-IBG, 5 μmol/L
Description: Cryopreserved human hepatocytes were plated on 48-well collagen-coated plastic plates in a chemically defined medium adapted from Isom and Georgoff ([1984]), consisting of a 50/50 (v/v) mixture of Ham F12/Williams E medium supplemented with 10% decomplemented fetal calf serum, 10 mg/L insulin, 0.8 mg/L glucagon and antibiotics (100 IU penicillin and 100 μg/mL streptomycin). […]
MEASURED_ENDPOINT: In vitro intrinsic hepatic clearance (mL·h^−1·10^6 cells)

> print(dat)
                                smiles.repr  experimental.value
1  CCCCc1oc2ccc(NS(C)(=O)=O)cc2c1C(=O)c1ccc(O)cc1                0.75
2           CCCCN(CCCC)CCCOc1ccc(C(=O)O)cc1               0.003
3  CCCCc1oc2ccc(NS(C)(=O)=O)cc2c1C(=O)c1ccc(OCCCN(CCCC)CCCC)cc1.Cl                0.10
4  CCCCc1oc2ccc(NS(C)(=O)=O)cc2c1C(=O)c1ccc(OCCC(=O)O)cc1                0.14
5  CCCCNCCCOc1ccc(C(=O)c2c(CCCC)oc3ccc(NS(C)(=O)=O)cc23)cc1                0.08

---

Below is a list of entries, each paired with its recorded In vitro intrinsic hepatic clearance value.
tested on: cryopreserved human hepatocytes in primary culture; assay: Unchanged drug disappearance / intrinsic metabolic clearance in primary cultures of cryopreserved human hepatocytes; format: in vitro ADME; conditions: hepatocyte preparation HU-1359, 5 μmol/L
MEASURED_ENDPOINT: In vitro intrinsic hepatic clearance (mL·h^−1·10^6 cells)

> print(dat)
                                   molecule  experimental.value
1  CCCCNCCCOc1ccc(C(=O)c2c(CCCC)oc3ccc(NS(C)(=O)=O)cc23)cc1 [N-debutyl-dronedarone]                0.10
2  CCCCN(CCCC)CCCOc1ccc(C(=O)O)cc1 [C-dealkyl-dronedarone]               0.004
3  CCCCc1oc2ccc(NS(C)(=O)=O)cc2c1C(=O)c1ccc(O)cc1 [Phenol-dronedarone]                0.57
4  CCCCc1oc2ccc(NS(C)(=O)=O)cc2c1C(=O)c1ccc(OCCCN(CCCC)CCCC)cc1.Cl [Dronedarone]                0.14
5  CCCCc1oc2ccc(NS(C)(=O)=O)cc2c1C(=O)c1ccc(OCCC(=O)O)cc1 [Propanoic acid-dronedarone]                0.20

---

assay: Oxidative metabolism by human hepatic microsomal fractions with or without NADPH; format: in vitro ADME; details: absence of NADPH, 1 mg·mL^−1, 5 μmol/L, 30 min
MEASURED_ENDPOINT: Parent drug metabolized by human hepatic microsomes

> print(dat)
                                   compound  experimental.value
1  CCCCNCCCOc1ccc(C(=O)c2c(CCCC)oc3ccc(NS(C)(=O)=O)cc23)cc1 [N-debutyl-dronedarone]              25–30%

---

system: cryopreserved human hepatocytes in primary culture; test: Unchanged drug disappearance / intrinsic metabolic clearance in primary cultures of cryopreserved human hepatocytes; format: in vitro ADME; settings: hepatocyte preparation BD-296, 5 μmol/L
Kindly return satisfied if reported In vitro intrinsic hepatic clearance is no lower than 0.2 mL·h^−1·10^6 cells; return not satisfied if it is lower.

> print(dat)
                                smiles.repr                           target.of.assay          group
1  CCCCNCCCOc1ccc(C(=O)c2c(CCCC)oc3ccc(NS(C)(=O)=O)cc23)cc1  cryopreserved human hepatocytes in primary culture  not satisfied
2           CCCCN(CCCC)CCCOc1ccc(C(=O)O)cc1  cryopreserved human hepatocytes in primary culture  not satisfied
3  CCCCc1oc2ccc(NS(C)(=O)=O)cc2c1C(=O)c1ccc(OCCCN(CCCC)CCCC)cc1.Cl  cryopreserved human hepatocytes in primary culture      satisfied
4  CCCCc1oc2ccc(NS(C)(=O)=O)cc2c1C(=O)c1ccc(OCCC(=O)O)cc1  cryopreserved human hepatocytes in primary culture  not satisfied
5  CCCCc1oc2ccc(NS(C)(=O)=O)cc2c1C(=O)c1ccc(O)cc1  cryopreserved human hepatocytes in primary culture      satisfied
